src = PubChem BioAssay

# METHOD: reduction of polyQ htt aggregates in cells – imaging, exon1htt(103Q)mCFP cells, high-content imaging, primary screen (AID 483);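 note: compound exposure lasted 3 days before fixation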
# MEASUREMENT_PARAMETERS: exon1htt(103Q)mCFP cell line, aggregate imaging, at 2 µM; stronger effect = higher value
ENDPOINT_LABEL: inhibition of aggregation (%)
Give the value in % but do not write % after it.

1. CC1(C)C2CCC1(CS(=O)(=O)NCc1ccc(C(=O)O)cc1)C(=O)C2 (stereo not drawn)	1.1
2. C=CCN(CC=C)C(=O)CN1C(=O)c2ccccc2C1=O	27.5
3. CC(C)(C)NC(=O)Nc1ccccc1C(N)=O	-14.8
4. O=c1c2c(nc3nc(CCc4ccccc4)[nH]n13)CCC2	-5.3
5. COc1cccc(-c2cc(C(=O)Nc3c(C)nn(Cc4ccccc4)c3C)no2)c1	-6.5

Inquiry: Recorded inhibition of aggregation for "CC(=O)Nc1c(I)c(NC(C)=O)c(I)c(C(=O)O)c1I" , please?
Reply text: 21.1

Inquiry: Recorded inhibition of aggregation for COCCN1C(=O)C(=O)/C(=C(/O)c2cccc(S(=O)(=O)N(C)C)c2)C12C(=O)N(C)c1ccccc12 (stereo not drawn) , please?
Reply text: 5.4

Inquiry: Recorded inhibition of aggregation for "COc1cc(-c2noc(-c3cccc(Cl)c3)n2)cc(OC)c1OC" , please?
Reply text: -21

Inquiry: Recorded inhibition of aggregation for "CCOc1cc2[nH]c(=O)n(CCCCC(=O)N3CCCCCC3)c(=O)c2cc1OCC" , please?
Reply text: 4.8

Inquiry: Recorded inhibition of aggregation for COc1ccc(C2C(C(C)=O)=C(C)N=c3s/c(=C\c4ccc5c(c4)OCO5)c(=O)n32)c(OC)c1 (stereo not drawn) , please?
Reply text: 12.7

Inquiry: Recorded inhibition of aggregation for "Cc1cccn2c(=O)c3cc(C#N)c(=O)n(CCCN4CCOCC4)c3nc12" , please?
Reply text: 15.5

Inquiry: Recorded inhibition of aggregation for "CC1=C(C#N)C(=O)NC(C)(C)C1" , please?
Reply text: -3.7

Inquiry: Recorded inhibition of aggregation for "CN(c1cccc(NC(=O)COc2ccccc2)c1)S(C)(=O)=O" , please?
Reply text: 21.6

Inquiry: Recorded inhibition of aggregation for "CS(=O)(=O)N1CCc2cc(C(=O)N3CCCCC3)ccc21" , please?
Reply text: 0.6

Inquiry: Recorded inhibition of aggregation for "Cc1nn(-c2ccc(F)cc2)c2nc(N)c(C#N)c(-c3cccs3)c12" , please?
Reply text: 3

Inquiry: Recorded inhibition of aggregation for "Cn1c(=O)c2ncn(CC(=O)NCCOc3ccccc3)c2n(C)c1=O" , please?
Reply text: -3.1
